method: Cell Viability - LYMP2-007 (AID 979);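 also: cells exposed to compound for 24 h before reading; nearly all actives have a fitted effect of over 60% in size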
measurement.conditions: LYMP2-007 lymphoblastoid cell viability; series mostly up to 92.2 µM
Records with an inconclusive call do not appear. The source made the active and inactive calls. Calls follow the shape of the dose curve; as a rule, active = well fitted cell-killing curve with a large enough effect; inconclusive = small, poorly fitted or top-dose-only effect; inactive = flat fitted curve, though single readings scatter.
Possible outcomes: True = active, False = inactive

| compound | assigned.class |
| --- | --- |
| O=C(/C=C/c1ccc(O)c(O)c1)OC1C[C@](O)(C(=O)O)C[C@@H](O)[C@H]1O (some centres undefined) | False |
| CCCCCC/C(C=O)=C\c1ccccc1 | False |
| C=CC(=O)OCCOCCOC(=O)C=C | True |
| O=C1OC(O)C(C(Cl)Cl)=C1Cl (centres undefined) | True |
